Quantity: melting point

# annotated cases, reported melting point shown
1. Cc1cccc2[nH]c(C(=O)OC(C)C)c(Sc3ccc(Cl)cc3)c12 = 190 to 192 °C
2. COc1cc(-c2nc(NNC(=O)c3cc4c(C)c(C)ccc4n3CCCC#N)nn2CCC2CCCCC2)c(OC)cc1Cl = 178 °C
3. CCCN1C(=O)COc2cc(F)c(-n3nn[nH]c3=O)cc21 = 145 to 148 °C
4. O=C(O)c1ccccc1Sc1ccc(Cl)cc1 = 240 °C
5. COc1c(Br)cccc1[N+](=O)[O-] = 55 to 56 °C

Name the reported melting point value associated with the compound CCc1nc2c(C)cc(C)nc2n1Cc1ccc(C(Cc2nnn[nH]2)c2ccccc2Cl)cc1 (stereo unspecified)
217 to 221 °C

Thanks! And COC(=O)c1ccc(CN2CCN(CC(C)O)CC2)cc1 (stereo unspecified) ?
63 to 64 °C

Now consider COc1ccoc1C1OC(=O)NC1=O (stereo unspecified) .
102 to 104 °C

Input CC(=O)S[C@H]1CNC(=O)C1
114 to 116 °C

And the next one, COCCOc1ncc(Cl)c(N)c1Cl ?
92 to 93.5 °C

Next up: O=C(NN=Cc1ccnc2ccccc12)c1ccc(Cl)cc1
233 °C

Try the compound Nc1cccc(-c2ccc(CCN3CCC4(CC3)NC(=O)N(Cc3ccccc3)C4=O)cc2)n1
190 °C

Now the same for CC1(c2cccc(F)c2C(=O)NCCCl)CCC1
108 to 110 °C

Another compound to look at: O=C(Nc1ccc(Cl)c(C(F)(F)F)c1)Nc1ccc(Cl)cc1-c1nnn[nH]1
245 to 247 °C

For Cc1ccc(-c2nc(N)nc(N)n2)cn1 then?
> 260 °C

Could you do the same for COc1ccc(S(=O)(=O)N2Cc3cc(C)ccc3N(C(=O)c3ccccc3-n3cccn3)CC2C(=O)O)cc1 (stereo unspecified) , please?
149 to 151 °C

// same read-out, input: O=c1cc(-c2ccc(C(F)(F)F)cc2)cc(C(F)(F)F)o1
52 °C

And CCCCCCCCCCCCCCCCCCOc1cc2ccccc2cc1O ?
60 to 62 °C

Ok, now Cc1ccc(S(=O)(=O)ON=C(C#N)c2ccccc2)cc1
131 to 132 °C

Also N#Cc1ccc(Cc2ccc(O)cc2)cc1 ?
163 to 164 °C

Also Cc1ccc(S(=O)(=O)OCCc2ccc3cc(Br)ccc3n2)cc1 , if possible.
107 to 109 °C

Try this compound next: Cc1nnc(-c2ccc3ncn(C4CCN(S(C)(=O)=O)CC4)c3c2)o1
233 to 234 °C

Next up: Nc1ccc(Oc2ccc3ccc(Oc4ccc(N)c(O)c4)cc3c2)cc1O
201 to 210 °C

CC1=NCN(c2ccc(Br)s2)O1 , same question.
48 to 49 °C

And the next one, O=c1ncc(Cl)cn1CS(=O)c1ccc(Cl)cc1 (stereo unspecified) ?
262 °C

Quick one: COC(=O)C(C(=O)OC)c1cc(F)cc2c1C(=O)c1cc3ccccc3cc1C2=O
225 to 230 °C

Data origin, for the record: a melting point compilation (Tetko et al.; mined from patent text by program, amines drawn as free bases though some values may be those of a salt)
